- ASSAY_TEXT: Stressed thermal stability test (70° C. for 58 hours), impurities by HPLC
- Assay type: physicochemical
- CONDITION_DESCRIPTION: End of test time, Hydrochloride
Counter-ions that a name gives are not always drawn.

{"columns": ["COMPOUND", "Impurity (a) (HPLC A %)"],
 "data": [
  ["CNCCC(Oc1ccccc1C)c1ccccc1 (single isomer, unassigned) [Sample 3, Atomoxetine Hydrochloride]", "not detected"],
  ["CNCCC(Oc1ccccc1C)c1ccccc1 (single isomer, unassigned) [Sample 1, Atomoxetine Hydrochloride]", "10.5% HPLC A %"],
  ["CNCCC(Oc1ccccc1C)c1ccccc1 (single isomer, unassigned) [Sample 2, Atomoxetine Hydrochloride]", "not detected"],
  ["CNCCC(Oc1ccccc1C)c1ccccc1 (single isomer, unassigned) [Sample 4, Atomoxetine Hydrochloride]", "not detected"]
]}
